Where do the numbers come from? From paper PMC3744103.

# System: UMUC3 cells
# measurementNotes: Cell viability, ATPase activity assay
# Type: cell-based, human
# measurementConditions: read-out: IC50, cell viability; UMUC3, ISO 5–60 μM, 48 h, n=3
attributeMeasured: IC50 (µM)
Form entry: value (µM) — number only.

Exercise: Returns the measured IC50 for the input molecule. Input: COc1cc(/C=C/c2cc(O)cc(O)c2)ccc1O
Solution: 22.4
